- target.entity: Biotinylated recombinant human IL-6 (human, UniProt P05231 30-212, biotinylated (sites not given))
- protocol.summary: cell-based or functional assay
// NB: equality with 1000 nM counts as Criterion not met; only IC50, inhibition of IL-6-induced cell signaling (IL-6 Bioassay, luciferase reporter cells) strictly below is Criterion met

{"columns": ["binder", "answer.label"],
 "data": [
  ["Ac-FSFRDLLRRMCHIVG-NH2 [Peptide 72]", "Criterion met"],
  ["Ac-ATIRDLIRMMKVCVG-NH2 [Peptide 82]", "Criterion met"],
  ["Ac-SFRDLIRMMKVCVG-NH2 [Peptide 90]", "Criterion not met"],
  ["Ac-FAFRDLLRRMCHIVG-NH2 [Peptide 45 (2)]", "Criterion met"],
  ["Ac-SVRDLLRRMKVCVG-NH2 [Peptide 27 (2)]", "Criterion met"],
  ["Ac-SVRDLLRRMCHIVG-NH2 (peptide 9 with protected termini) [Peptide 9 (2)]", "Criterion met"],
  ["Ac-ATIRDLLRRMCHIVG-NH2 [Peptide 38 (2)]", "Criterion met"],
  ["Ac-TIRDLLRRMCHIVG-NH2 [Peptide 71]", "Criterion not met"],
  ["Ac-TIRDLIRMMKVCVG-NH2 [Peptide 100]", "Criterion not met"]
]}
